Assay: Thermal stability by differential scanning calorimetry
Type: physicochemical
Conditions: cysteine-NEM conjugates, second identical scan
Property name: Second Scan Tm (°C)

>  <Molecule>
S38C (protein, EGFR binding FN3 domain; EGFR-binding FN3 domain) chain 1: MLPAPKNLVVSEVTEDSARLSWDDPWAFYESFLIQYQECEKVGEAIVLTVPGSERSYDLTGLKPGTEYTVSIYGVHNVYKDTNMRGLPLSAIFTT chain 2: LPAPKNLVVSEVTEDSARLSWDDPWAFYESFLIQYQECEKVGEAIVLTVPGSERSYDLTGLKPGTEYTVSIYGVHNVYKDTNMRGLPLSAIFTT

>  <Property name>
Second Scan Tm

>  <Assay value>
65

$$$$
>  <Molecule>
S10C (protein, EGFR binding FN3 domain; EGFR-binding FN3 domain) chain 1: MLPAPKNLVVCEVTEDSARLSWDDPWAFYESFLIQYQESEKVGEAIVLTVPGSERSYDLTGLKPGTEYTVSIYGVHNVYKDTNMRGLPLSAIFTT chain 2: LPAPKNLVVCEVTEDSARLSWDDPWAFYESFLIQYQESEKVGEAIVLTVPGSERSYDLTGLKPGTEYTVSIYGVHNVYKDTNMRGLPLSAIFTT

>  <Property name>
Second Scan Tm

>  <Assay value>
68

$$$$
>  <Molecule>
R54C (protein, EGFR binding FN3 domain; EGFR-binding FN3 domain) chain 1: MLPAPKNLVVSEVTEDSARLSWDDPWAFYESFLIQYQESEKVGEAIVLTVPGSECSYDLTGLKPGTEYTVSIYGVHNVYKDTNMRGLPLSAIFTT chain 2: LPAPKNLVVSEVTEDSARLSWDDPWAFYESFLIQYQESEKVGEAIVLTVPGSECSYDLTGLKPGTEYTVSIYGVHNVYKDTNMRGLPLSAIFTT

>  <Property name>
Second Scan Tm

>  <Assay value>
65

$$$$
